# Method Summary: HepG2 liver cancer cell viability effects, profiling panel, resazurin fluorescence, 24 h, PK04 Diversity Set (AID 1172); note: test concentration not given here
# Assay Context: higher = more signal
Readout Kind: z-score
Give bare numbers.

| Compound | Measured Number |
| --- | --- |
| CCOC(=O)CCN1C(=O)[C@H]2[C@H]3[C@H](O)C=CC(=O)[C@@H]3CC[C@H]2C1=O | -0.0089 |
| COc1ccccc1CN1C(=O)c2ccccc2[C@@]2(Cc3ccccc3N(C(C)C)C2=O)[C@@H]1c1ccc(CO)cc1 | -0.643 |
| Cc1ccc(C2CC=C(C(=O)O)CN2S(=O)(=O)c2ccc(C)cc2)cc1 (stereo not drawn) | -0.719 |
| CCOC(=O)[C@H](Cc1ccccc1)NC(=O)CCC1CC(OC(=O)NCCc2ccc(F)cc2)CC2(CCCC(COC(=O)NCC(c3ccccc3)c3ccccc3)O2)O1 (stereo partly drawn) | 0.506 |
| Cc1cc2c(nc1C)CCCN2CC(C)ON=C1[C@H]2CCn3c(=O)n(-c4ccccc4)c(=O)n3[C@H]2[C@H](O)[C@@H]2O[C@H]12 (stereo partly drawn) | -0.942 |
| C=CCN1C(=O)[C@]2(O[C@H](CCn3cc(CCO)nn3)[C@@H]([Si](C)(C)c3ccc(OC)cc3)[C@@H]2C)c2cc(N3CCOC3=O)ccc21 | -0.0584 |
| O=C1[C@H]2[C@H]3[C@H](O)[C@H](O)CC(=NOC[C@@H](O)COCc4ccco4)[C@H]3CC[C@H]2C(=O)N1C1CCCCC1 | 0.0194 |
| CCOc1ccc(N2C(=O)/C(=C/C=C/c3ccccc3OC)S(=O)(=O)C2c2cccc([N+](=O)[O-])c2)cc1 (stereo not drawn) | 1.28 |

Batch: z-score for all items listed.
1. O=C1[C@H]2[C@H]3[C@H](O)[C@H](O)CC(=NO[C@@H]4O[C@H](CO)[C@@H](O)[C@H](O)[C@H]4O)[C@@H]3CC[C@H]2C(=O)N1c1ccc(F)cc1F
2. COc1ccccc1CN1C(=O)c2ccccc2[C@@H](C(=O)NCC(F)(F)F)[C@@H]1c1ccc(CO)cc1
3. C=CCC(OC(C)=O)[C@@H]1[C@@H](N(Cc2cc3ccccc3o2)C(=O)Cc2ccc(F)cc2)c2cc(OCCCO)ccc2N1C(=O)Cc1ccc(OC)cc1 (stereo partly drawn)
4. CN(C)C(=O)[C@@]1(Cc2ccccc2)N=C(c2ccc(OCCCO)cc2)O[C@H]1c1ccccc1CN=[N+]=[N-]

[0.662, 1.06, 0.217, -0.412]

Batch: z-score for all items listed.
1. CO[C@@H]1COC(=O)[C@@H]2CCCN2C(=O)[C@@H](C)COC(=O)[C@H](COCc2ccccc2)NC(=O)CC=C[C@H]1C
2. COc1ccc(O[C@@H]2[C@H](O)CO[C@H]2C=CC#Cc2ccccc2)cc1

1: -0.327; 2: 0.0873

Batch: z-score for all items listed.
1. CCCNC(=O)OC[C@H]1O[C@H](CCON=C2[C@H]3CCn4c(=O)n(-c5ccccc5)c(=O)n4[C@H]3[C@H](O)[C@@H]3O[C@H]23)C=C[C@@H]1Oc1ccc(OC)cc1
2. CC(C)CON=C1C[C@@H](O)[C@@H](O)[C@@H]2[C@@H]3C(=O)N([C@@H](C)c4ccccc4)C(=O)[C@@H]3CC[C@H]12
3. COc1ccc(-c2ccc3c(n2)CCCN3CC(O)CN2CCCc3nc(C)c(C)cc32)cc1 (stereo not drawn)
4. COC(=O)[C@@H]1CC[C@H](C)[C@@H](c2ccc(C)cc2)N1C(=O)c1ccc(C=NOC[C@@H](O)COCc2ccco2)cc1
5. C=CC[C@@H]1C=C[C@H](ON=C(C)CCN2CCc3nc(CC)c(CC)cc3C2)[C@@H](CO)O1

[-0.633, 0.0096, -0.671, -0.609, -0.127]
